- TARGET OR TEST SYSTEM: SMARCA2 (Homo sapiens, UniProt P51531)
- Sequence (P51531 whole entry): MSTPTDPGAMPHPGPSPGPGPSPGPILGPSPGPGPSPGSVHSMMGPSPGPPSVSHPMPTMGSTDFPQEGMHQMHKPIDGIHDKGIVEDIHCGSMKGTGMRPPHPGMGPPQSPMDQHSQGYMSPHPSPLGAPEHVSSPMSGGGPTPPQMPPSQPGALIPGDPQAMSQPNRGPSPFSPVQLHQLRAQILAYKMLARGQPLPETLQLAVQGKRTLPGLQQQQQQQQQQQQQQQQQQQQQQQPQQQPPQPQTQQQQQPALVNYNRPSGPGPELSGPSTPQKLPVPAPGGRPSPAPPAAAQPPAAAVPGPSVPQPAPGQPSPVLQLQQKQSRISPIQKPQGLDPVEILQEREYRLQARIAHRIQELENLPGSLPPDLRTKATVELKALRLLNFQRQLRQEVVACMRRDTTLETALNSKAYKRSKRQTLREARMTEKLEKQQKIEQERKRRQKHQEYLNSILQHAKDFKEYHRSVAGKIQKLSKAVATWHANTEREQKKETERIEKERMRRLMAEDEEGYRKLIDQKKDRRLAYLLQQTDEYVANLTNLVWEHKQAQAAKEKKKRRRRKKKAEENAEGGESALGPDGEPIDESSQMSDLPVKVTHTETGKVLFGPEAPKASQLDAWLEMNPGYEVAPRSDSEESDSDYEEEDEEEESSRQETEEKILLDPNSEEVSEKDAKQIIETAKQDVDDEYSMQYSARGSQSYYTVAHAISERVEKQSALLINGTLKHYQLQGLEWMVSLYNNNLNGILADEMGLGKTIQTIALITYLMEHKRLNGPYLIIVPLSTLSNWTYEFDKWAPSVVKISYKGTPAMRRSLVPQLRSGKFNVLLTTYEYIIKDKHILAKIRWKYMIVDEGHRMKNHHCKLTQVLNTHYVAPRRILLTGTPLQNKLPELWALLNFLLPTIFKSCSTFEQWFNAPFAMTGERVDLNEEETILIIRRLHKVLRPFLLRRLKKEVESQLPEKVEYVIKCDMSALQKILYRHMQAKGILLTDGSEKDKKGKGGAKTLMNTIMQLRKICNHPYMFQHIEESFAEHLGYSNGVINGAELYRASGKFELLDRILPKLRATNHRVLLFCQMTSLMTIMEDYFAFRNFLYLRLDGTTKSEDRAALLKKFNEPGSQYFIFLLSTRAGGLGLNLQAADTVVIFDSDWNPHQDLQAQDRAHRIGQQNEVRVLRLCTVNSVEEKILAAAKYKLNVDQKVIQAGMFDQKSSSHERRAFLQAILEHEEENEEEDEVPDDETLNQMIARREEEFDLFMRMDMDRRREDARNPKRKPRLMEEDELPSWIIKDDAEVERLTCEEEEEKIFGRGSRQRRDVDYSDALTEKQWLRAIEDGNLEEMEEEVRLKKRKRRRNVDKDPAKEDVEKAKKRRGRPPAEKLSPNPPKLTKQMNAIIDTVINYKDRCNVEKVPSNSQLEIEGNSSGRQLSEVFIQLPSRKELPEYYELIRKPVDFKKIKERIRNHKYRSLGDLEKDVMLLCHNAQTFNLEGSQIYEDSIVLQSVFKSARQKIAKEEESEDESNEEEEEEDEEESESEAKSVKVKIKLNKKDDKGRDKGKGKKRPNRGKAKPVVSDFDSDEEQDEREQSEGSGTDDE
- PROTOCOL: MSD SMARCA2 degradation in A549 cell line
- Type: cell-based
- CONDITION SET: A549 cells, 24 h, read-out: SMARCA2 MSD A549 degradation 24 h: Average external-Abs DC50
The compounds listed here are annotated with their DC50.

1. C#Cc1ccc([C@H](C)NC(=O)[C@@H]2C[C@@H](O)CN2C(=O)C(c2cc(N3CCC(CN4CCC(N5CCC(N6CCN7c8cc(-c9ccccc9O)nnc8NC[C@H]7C6)CC5)CC4)CC3)no2)C(C)C)c(Cl)c1 (stereo partly drawn) [I-324]    > 100 nM
2. C#Cc1ccc(CNC(=O)[C@@H]2C[C@@H](O)CN2C(=O)[C@@H](NC(=O)N2CC3(CC(N4CCN([C@H]5CC[C@@H](N6CCc7[nH]c8nnc(-c9ccccc9O)cc8c7[C@H]6C)CC5)CC4)C3)C2)C(C)(C)C)cc1 [I-187]    50 to 100 nM
3. C#Cc1ccc(CNC(=O)[C@@H]2C[C@@H](O)CN2C(=O)[C@@H](NC(=O)CCCCCN2CCC(N3CC4(CC(N5CCN6c7cc(-c8ccccc8O)nnc7NC[C@H]6C5)C4)C3)CC2)C(C)(C)C)cc1 [I-251]    > 100 nM
4. C#Cc1ccc([C@H](C)NC(=O)[C@@H]2C[C@@H](O)CN2C(=O)[C@@H](NC(=O)[C@H]2CC3(C2)C[C@H](c2cnc(N4CCC(N5CCN6c7cc(-c8ccccc8O)nnc7NC[C@H]6C5)CC4)nc2)C3)C(C)(C)C)cc1 (stereo partly drawn) [I-362]    10 to 50 nM

Per the records, this compound ( C#Cc1ccc(CNC(=O)[C@@H]2C[C@@H](O)CN2C(=O)[C@@H](NC(=O)N2CC3(CC(N4CCC(c5cnc(N6CCc7[nH]c8nnc(-c9ccccc9O)cc8c7[C@H]6C)nc5)CC4)C3)C2)C(C)(C)C)c(OCCCC(=O)O)c1 [I-145] ) has DC50 equal to 10 to 50 nM

// DC50 lookup, compound = C#Cc1ccc(CNC(=O)[C@@H]2C[C@@H](O)CN2C(=O)[C@@H](NC(=O)N2CC3(CC(N4CCC(c5cnc(N6CCc7[nH]c8nnc(-c9ccccc9O)cc8c7[C@H]6C)nc5)CC4)C3)C2)C(C)(C)C)c(OCCCN(C)C)c1 [I-127] , result: > 100 nM

# DC50 (compound: Cc1ncsc1-c1ccc(CNC(=O)[C@@H]2C[C@@H](O)CN2C(=O)C(c2cc(N3CCC4(CC3)CC(N3CCC(c5cnc(N6CCc7[nH]c8nnc(-c9ccccc9O)cc8c7[C@H]6C)nc5)CC3)C4)no2)C(C)C)cc1 (stereo partly drawn) [I-13] ) is 10 to 50 nM

Lab book: DC50 of Cc1ncsc1-c1ccc(CNC(=O)[C@@H]2C[C@@H](O)CN2C(=O)C(c2cc(OCCCCN3CCC(c4cnc(N5CCN6c7cc(-c8ccccc8O)nnc7NC[C@@H]6C5)nc4)CC3)no2)C(C)C)cc1 (stereo partly drawn) [I-51] noted as 10 to 50 nM

DC50 measured on C#Cc1ccc(CNC(=O)[C@@H]2C[C@@H](O)CN2C(=O)[C@@H](NC(=O)N2CCN(CC3CCN(c4cnc(N5CCc6[nH]c7nnc(-c8ccccc8O)cc7c6[C@@H]5C)nc4)CC3)CC2)C(C)(C)C)cc1 [I-160] = > 100 nM

----------
- TARGET OR TEST SYSTEM: SMARCA4 (Homo sapiens)
- Construct: SMARCA2/SMARCA4 protein degradation selectivity in MV4-11 cells; endogenous in cells; host or cells: MV4-11
- Sequence (P51532 whole entry): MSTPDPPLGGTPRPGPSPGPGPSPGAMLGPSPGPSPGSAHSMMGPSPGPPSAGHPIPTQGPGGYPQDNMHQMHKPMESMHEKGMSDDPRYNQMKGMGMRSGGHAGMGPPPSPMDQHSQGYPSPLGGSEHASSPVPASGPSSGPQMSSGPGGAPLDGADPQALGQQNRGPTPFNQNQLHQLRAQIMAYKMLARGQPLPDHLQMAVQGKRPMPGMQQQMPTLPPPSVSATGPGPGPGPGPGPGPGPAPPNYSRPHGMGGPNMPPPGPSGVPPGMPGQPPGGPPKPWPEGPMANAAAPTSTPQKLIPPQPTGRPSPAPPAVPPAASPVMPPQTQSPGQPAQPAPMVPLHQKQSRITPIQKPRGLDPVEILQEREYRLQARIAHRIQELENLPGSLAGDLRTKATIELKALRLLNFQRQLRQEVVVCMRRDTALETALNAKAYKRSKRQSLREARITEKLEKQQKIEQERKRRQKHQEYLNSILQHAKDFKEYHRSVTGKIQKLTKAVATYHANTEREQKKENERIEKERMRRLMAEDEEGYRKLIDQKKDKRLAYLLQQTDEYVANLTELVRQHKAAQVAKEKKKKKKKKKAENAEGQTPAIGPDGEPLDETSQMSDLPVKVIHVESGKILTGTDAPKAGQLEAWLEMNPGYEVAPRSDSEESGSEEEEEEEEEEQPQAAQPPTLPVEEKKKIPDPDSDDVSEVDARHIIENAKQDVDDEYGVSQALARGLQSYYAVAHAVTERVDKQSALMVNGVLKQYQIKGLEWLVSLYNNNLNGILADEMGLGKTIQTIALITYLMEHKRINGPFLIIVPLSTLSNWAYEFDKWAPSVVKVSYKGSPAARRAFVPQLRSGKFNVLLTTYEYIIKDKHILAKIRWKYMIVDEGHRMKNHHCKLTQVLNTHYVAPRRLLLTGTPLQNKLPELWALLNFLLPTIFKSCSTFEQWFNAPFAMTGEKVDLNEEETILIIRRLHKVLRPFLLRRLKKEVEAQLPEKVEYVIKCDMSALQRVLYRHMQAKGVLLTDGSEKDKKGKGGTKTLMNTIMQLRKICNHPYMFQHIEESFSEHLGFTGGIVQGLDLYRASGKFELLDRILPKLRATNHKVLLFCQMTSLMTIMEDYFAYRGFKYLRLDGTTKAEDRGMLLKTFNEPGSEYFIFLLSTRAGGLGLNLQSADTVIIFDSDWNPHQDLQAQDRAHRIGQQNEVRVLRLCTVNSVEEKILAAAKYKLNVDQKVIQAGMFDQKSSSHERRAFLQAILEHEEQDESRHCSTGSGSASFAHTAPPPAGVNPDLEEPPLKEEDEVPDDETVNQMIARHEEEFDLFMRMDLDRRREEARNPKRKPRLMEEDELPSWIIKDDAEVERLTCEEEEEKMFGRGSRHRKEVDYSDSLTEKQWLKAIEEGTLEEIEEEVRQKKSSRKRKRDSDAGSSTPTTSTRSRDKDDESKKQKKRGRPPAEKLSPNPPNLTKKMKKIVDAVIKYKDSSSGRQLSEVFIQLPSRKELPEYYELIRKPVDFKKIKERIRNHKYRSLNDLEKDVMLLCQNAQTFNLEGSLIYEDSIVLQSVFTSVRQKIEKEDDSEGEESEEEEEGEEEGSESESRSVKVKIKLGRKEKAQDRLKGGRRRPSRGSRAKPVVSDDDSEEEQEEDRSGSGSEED
- PROTOCOL: SMARCA4 Western blot degradation in MV4-11 cells
- Format: cell-based
- CONDITION SET: MV4-11 cells, 24 h; read-out: SMARCA4 MSD MV411 degradation 24 h: Mean external-Abs DC50
# Lookup of reported DC50 keyed by entry

Below, 2 compounds whose answers are already recorded.
1. C#Cc1ccc(CNC(=O)[C@@H]2C[C@@H](O)CN2C(=O)[C@@H](NC(=O)N2CC3(CC(N4CCC(c5cnc(N6CCc7[nH]c8nnc(-c9ccccc9O)cc8c7[C@H]6C)nc5)CC4)C3)C2)C(C)(C)CCOCC(=O)O)cc1 (single isomer, unassigned) [I-262]    > 100 nM
2. C#Cc1ccc(CNC(=O)[C@@H]2C[C@@H](O)CN2C(=O)[C@@H](NC(=O)C2CCN(C[C@H]3CC[C@H](N4CCc5[nH]c6nnc(-c7ccccc7O)cc6c5[C@H]4C)CC3)CC2)C(C)(C)C)cc1 (single isomer, unassigned) [I-202]    > 100 nM

Summary for this compound, Cc1ncsc1-c1ccc(CNC(=O)[C@@H]2C[C@@H](O)CN2C(=O)[C@@H](NC(=O)[C@H]2CCC3(CC2)C[C@H](N2CCC(c4ccc(N5CCN6c7cc(-c8ccccc8O)nnc7NC[C@H]6C5)nc4)CC2)C3)C(C)(C)C)cc1 (stereo partly shown) [I-94] : DC50 is 10 to 100 nM

The reported value for Cc1ncsc1-c1ccc(CNC(=O)[C@@H]2C[C@@H](O)CN2C(=O)C(c2cc(N3CC4(CCC(N5CCC(c6cnc(N7CCc8[nH]c9nnc(-c%10ccccc%10O)cc9c8[C@H]7C)nc6)CC5)CC4)C3)no2)C(C)C)cc1 (single isomer, unassigned) [I-14] in terms of DC50 is 1 to 10 nM

----------
DC50 for assorted compounds
- TARGET OR TEST SYSTEM: SMARCA2 (Homo sapiens)
- PROTOCOL: MSD SMARCA2 degradation in A549 cell line
- Format: cell-based
- CONDITION SET: A549 cells, 24 h, read-out: SMARCA2 MSD A549 degradation 24 h: Average external-Abs DC50
- Experimental: Example 10. MSD SMARCA2 Degradation in A549 Cell Line Cells were seeded into 96-well plates (A549 cells: 2×10^4 cells/well/100 ul media) and incubated overnight. […] The MSD plate was washed three times with 150 uL/well of TBST and 150 ul/well of 2× MSD reading buffer diluted from 4× (MSD, R92TC-2) with water was added. Lastly, the MSD instrument was read. […]

Completed entries (count: 7):
1) C#Cc1ccc(CNC(=O)[C@@H]2C[C@@H](O)CN2C(=O)[C@@H](NC(=O)[C@H]2CCC3(CC2)C[C@H](N2CCN(c4cnc(N5CCN6c7cc(-c8ccccc8O)nnc7NC[C@H]6C5)nc4)CC2)C3)C(C)(C)C)cc1 (single isomer, unassigned) [I-122]    10 to 50 nM
2) C#Cc1ccc(CNC(=O)[C@@H]2C[C@@H](O)CN2C(=O)[C@@H](NC(=O)[C@H]2CCC3(CC2)C[C@H](N2CCC(N4CCC(N5CCN6c7cc(-c8ccccc8O)nnc7NC[C@H]6C5)CC4)CC2)C3)C(C)(C)C)c(OC)c1 (some centres unmarked) [I-178]    > 100 nM
3) Cc1ncsc1-c1ccc(CNC(=O)[C@@H]2C[C@@H](O)CN2C(=O)[C@@H](NC(=O)C2CC3(C2)CC(N2CCC(N4CCC(N5CCN6c7cc(-c8ccccc8O)nnc7NC[C@H]6C5)CC4)CC2)C3)C(C)(C)C)cc1 (some centres unmarked)    > 100 nM
4) C#Cc1ccc(CNC(=O)[C@@H]2C[C@@H](O)CN2C(=O)[C@@H](NC(=O)N2CC3(CC(N4CCC(c5cnc(N6CCc7[nH]c8nnc(-c9ccccc9O)cc8c7[C@H]6C)nc5)CC4)C3)C2)C(C)(C)C)c(C)c1    < 10 nM
5) C#Cc1ccc(CNC(=O)[C@@H]2C[C@@H](O)CN2C(=O)[C@@H](NC(=O)[C@H]2CCC3(CC2)C[C@H](N2CCC(c4cnc(N5CCN6c7cc(-c8ccccc8O)nnc7NC[C@H]6C5)nc4)CC2)C3)C(C)(C)C)c(Cl)c1 (single isomer, unassigned) [I-99]    < 10 nM
6) C#Cc1ccc(CNC(=O)[C@@H]2C[C@@H](O)CN2C(=O)[C@@H](NC(=O)[C@H]2CCC3(CC2)C[C@H](N2CCC(c4cnc(N5CCN6c7cc(-c8ccccc8O)nnc7NC[C@H]6C5)nc4)CC2)C3)C(C)(C)C)c(OCCCOC)c1 (single isomer, unassigned) [I-149]    10 to 50 nM
7) C#Cc1ccc(CNC(=O)[C@@H]2C[C@@H](O)CN2C(=O)[C@@H](NC(=O)N2CC3(CC(N4CCC(N5CCC(N6CCc7[nH]c8nnc(-c9ccccc9O)cc8c7[C@H]6C)CC5)CC4)C3)C2)C(C)(C)C)cc1 (single isomer, unassigned)    > 100 nM

Note: attention shifts to another entry.
Record C#Cc1cnc(CNC(=O)[C@@H]2C[C@@H](O)CN2C(=O)C(c2cc(OCCN3CCC(N4CCC(N5CCC(CN6CCN7c8cc(-c9ccccc9O)nnc8NC[C@H]7C6)CC5)CC4)CC3)no2)C(C)C)c(OC)c1 (some centres unmarked) . Reported DC50: > 100 nM
